assay: qHTS assay to identify small molecule agonists of the farnesoid-X-receptor (FXR) signaling pathway - cell viability counter screen (AID 743218); details: FXR-bla HEK293T viability, CellTiter-Glo luminescence, 16 h; series mostly up to 62.6 µM; note: nearly all actives have a fitted effect of over 45% in size
Records with an inconclusive call do not appear. Calls of active or inactive are those of the source. Calls come from the whole dose curve; as a rule, active = well fitted cell-killing curve with a large enough effect in the repeat runs; inconclusive = weak or mixed curves, or effect the other way; inactive = no such curve, though single readings can be large or run the other way.
Please answer using one outcome listed in active, inactive

Past entries and their recorded results:
Please let me know the test result on file for `OCCCBr` . inactive

Please let me know the test result on file for `CCCN(CCC)c1c([N+](=O)[O-])cc(S(C)(=O)=O)cc1[N+](=O)[O-]` . inactive

Please let me know the test result on file for CC(=O)c1cc2c(cc1C)C(C)(C)C(C)CC2(C)C (stereo not given) . inactive

Please let me know the test result on file for O=C1C(Cl)C(CCl)CN1c1cccc(C(F)(F)F)c1 (stereo not given) . inactive

Others:
Please let me know the test result on file for `CCCCN=C=O` . inactive

Please let me know the test result on file for `CCCCCCCCOC(=O)c1ccc(C(=O)OCCCCCCCC)c(C(=O)OCCCCCCCC)c1` . inactive

Please let me know the test result on file for COC(=O)C(C)N(C(=O)Cc1ccccc1)c1c(C)cccc1C (stereo not given) . inactive

Please let me know the test result on file for `C=CCCl` . inactive

Please let me know the test result on file for `N#CCc1ccccc1` . inactive

* * *

Assay: qHTS assay to identify small molecule agonists of the estrogen related receptor signaling pathway with the pleiotropic PPARgamma coactivator (PGC) (AID 1224823)
Conditions: ERR/PGC reporter cell line, luciferase agonist mode; series mostly up to 92.2 µM
Protocol: National Center for Advancing Translational Sciences [NCATS] NIH Chemical Genomics Center [NCGC] U.S. Environmental Protection Agency [EPA] National Institutes of Environmental Health Sciences [NIEHS] National Toxicology Program [NTP] […] The PGC/ERR cells were dispensed at 2,000 cells/5 ul/well in 1536-well white plates using a Multidrop dispenser. […] After 30 min incubation at room temperature, the luminescence intensity in the plates was measured using a ViewLux plate reader.
Inconclusive results are not listed. Activity calls are given as the source filed them. Calls come from the whole dose curve; as a rule, active = well fitted activation curve with a large enough effect in the repeat runs; inconclusive = weak or mixed curves; inactive = no such curve, though single readings can be large or run the other way.
Measured endpoint: outcome

Please review the following examples before continuing.
Would you mind telling me what outcome value was observed for `CC(C)=CCOc1c2occc2cc2ccc(=O)oc12` ? inactive

Would you mind telling me what outcome value was observed for `CC(=O)[C@H]1CC[C@H]2[C@@H]3CC[C@H]4C[C@](C)(O)CC[C@]4(C)[C@H]3CC[C@]12C` ? inactive

Would you mind telling me what outcome value was observed for `O=S(=O)(O)C(F)(F)C(F)(F)C(F)(F)C(F)(F)F` ? inactive

Would you mind telling me what outcome value was observed for `c1ccc(C2CC2)c(OCC2=NCCN2)c1` ? inactive

Would you mind telling me what outcome value was observed for `COCCOCCO` ? inactive

Would you mind telling me what outcome value was observed for CC(O)(CS(=O)(=O)c1ccc(F)cc1)C(=O)Nc1ccc(C#N)c(C(F)(F)F)c1 (stereo not given) ? inactive

Would you mind telling me what outcome value was observed for NCC(CC(=O)O)c1ccc(Cl)cc1 (stereo not given) ? inactive

Would you mind telling me what outcome value was observed for `C=CC(=O)NCNC(=O)C=C` ? inactive

Would you mind telling me what outcome value was observed for `c1cc2ccc3cccc4ccc(c1)c2c34` ? inactive

Now turn to the next compound.
Would you mind telling me what outcome value was observed for `CCCCOC(=O)c1ccccc1C(=O)OCc1ccccc1` ? inactive

* * *

target: Cytochrome P450 2C19 (Homo sapiens) (UniProt P33261); test: Cytochrome P450 Family 2 Subfamily C Member 19 (CYP2C19) small molecule antagonists: luciferase reporter qHTS assay (AID 1671197); settings: P450-Glo CYP2C19 enzyme, luciferin luminescence, 1 h; series mostly up to 115 µM; note: nearly all actives have a fitted effect of over 65% in size; note: potency is the fitted concentration of half-maximal effect
Sequence (P33261 whole entry, looked up): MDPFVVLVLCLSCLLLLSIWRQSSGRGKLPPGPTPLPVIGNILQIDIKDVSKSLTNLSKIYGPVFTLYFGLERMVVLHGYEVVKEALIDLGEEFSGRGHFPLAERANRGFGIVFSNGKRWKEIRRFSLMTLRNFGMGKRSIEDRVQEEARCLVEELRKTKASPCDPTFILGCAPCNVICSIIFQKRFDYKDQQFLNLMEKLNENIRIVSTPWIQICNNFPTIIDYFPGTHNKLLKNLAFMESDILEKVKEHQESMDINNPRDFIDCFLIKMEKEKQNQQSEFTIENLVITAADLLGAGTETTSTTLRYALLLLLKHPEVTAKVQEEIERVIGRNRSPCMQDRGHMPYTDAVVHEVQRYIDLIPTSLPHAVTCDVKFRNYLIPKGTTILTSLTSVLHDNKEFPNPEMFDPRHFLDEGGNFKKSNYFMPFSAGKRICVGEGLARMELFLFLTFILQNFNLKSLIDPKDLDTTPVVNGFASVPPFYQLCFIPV
Inconclusive results are not listed. Active and inactive are the calls of the source. The call rests on the fitted dose curve; in most records, active means well fitted inhibition curve with a large enough effect in the repeat runs; inconclusive means weak or mixed curves; inactive means no such curve, though single readings can be large or run the other way.
Measured endpoint: Potency

Would you mind telling me what Potency value was observed for `O=C(O)C(F)(F)C(F)(F)C(F)(F)C(F)(F)C(F)(F)C(F)(F)C(F)(F)C(F)(F)C(F)(F)C(F)(F)F` ? inactive

Would you mind telling me what Potency value was observed for `CC(c1ccc(O)cc1)(c1ccc(O)cc1)c1ccc(O)cc1` ? 28.3 µM (active)

Would you mind telling me what Potency value was observed for `c1cc2ccc3cccc4ccc(c1)c2c34` ? 16.7 µM (active)

Would you mind telling me what Potency value was observed for COC(=O)c1cncn1C(C)c1ccccc1 (stereo unspecified) ? 3.89 µM (active)

Would you mind telling me what Potency value was observed for `Cc1ccccc1CCl` ? inactive

Now turn to the next compound.
Would you mind telling me what Potency value was observed for `CCCCCCCCOC(=O)c1ccc(C(=O)OCCCCCCCC)c(C(=O)OCCCCCCCC)c1` ? 80.6 µM (active)

* * *

assay: qHTS assay for identifying genotoxic compounds that show differential cytotoxicity against isogenic chicken DT40 cell lines with known DNA damage response pathways - wild type cell line (AID 743012); settings: DT40 wild type chicken cells viability, CellTiter-Glo, 40 h; series mostly up to 68.4 µM; note: nearly all actives have a fitted effect of over 60% in size; note: potency is the fitted concentration of half-maximal effect
Inconclusive results are not listed. Activity calls are given as the source filed them. The call rests on the fitted dose curve; in most records, active means well fitted cell-killing curve with a large enough effect in the repeat runs; inconclusive means weak or mixed curves, or effect the other way; inactive means no such curve, though single readings can be large or run the other way.
Measured endpoint: Potency

Please review the following examples before continuing.
Would you mind telling me what Potency value was observed for `CN1C[C@H](CNC(=O)OCc2ccccc2)C[C@@H]2c3cccc4c3c(cn4C)C[C@H]21` ? 5.96 µM (active)

Would you mind telling me what Potency value was observed for `c1ccc(CN2CCNCC2)cc1` ? inactive

Would you mind telling me what Potency value was observed for `CCCN(CC1CC1)c1c([N+](=O)[O-])cc(C(F)(F)F)cc1[N+](=O)[O-]` ? inactive

Would you mind telling me what Potency value was observed for `CC(Cl)Cl` ? inactive

Would you mind telling me what Potency value was observed for `CCOC(=O)CBr` ? inactive

Would you mind telling me what Potency value was observed for `C#CCOC(C(=O)OCCN(C)C)(c1ccccc1)c1ccccc1` ? inactive

Would you mind telling me what Potency value was observed for `C=CCOC(C)=O` ? inactive

Would you mind telling me what Potency value was observed for `C=COC(C)=O` ? inactive

Would you mind telling me what Potency value was observed for CC(=O)NC1CCSC1=O (centres undefined) ? inactive

Would you mind telling me what Potency value was observed for `C[N+](C)(C)CCCl` ? inactive

Others:
Would you mind telling me what Potency value was observed for `CC(C)(C)c1cc([N+](=O)[O-])cc([N+](=O)[O-])c1O` ? 19.3 µM (active)

Would you mind telling me what Potency value was observed for `c1ccc(C2CC2)c(OCC2=NCCN2)c1` ? inactive

Would you mind telling me what Potency value was observed for `CCOc1nc(F)cc2nc(S(=O)(=O)Nc3c(Cl)cccc3Cl)nn12` ? inactive

Would you mind telling me what Potency value was observed for `CC(C)=CCOc1c2occc2cc2ccc(=O)oc12` ? 26.6 µM (active)

* * *

assay: qHTS assay to identify small molecule antagonists of the retinoic acid receptor (RAR) signaling pathway (AID 1159552; note: nearly all actives have a fitted effect of over 50% in size); conditions: C3RL4 RARE luciferase reporter, retinol-stimulated, 6 h; series mostly up to 92.4 µM
Records with an inconclusive call do not appear. The source made the active and inactive calls. Calls come from the whole dose curve; as a rule, active = well fitted inhibition curve with a large enough effect in the repeat runs; inconclusive = weak or mixed curves, or effect the other way; inactive = no such curve, though single readings can be large or run the other way.
Measured endpoint: outcome

Please review the following examples before continuing.
Would you mind telling me what outcome value was observed for ClCC(Br)CBr (stereo not drawn) ? inactive

Would you mind telling me what outcome value was observed for `OC(c1ccc(Cl)cc1)(c1ccc(Cl)cc1)c1cccnc1` ? inactive

Would you mind telling me what outcome value was observed for `CCOC(=O)COc1cc(-c2nn(C)c(OC(F)F)c2Cl)c(F)cc1Cl` ? inactive

Would you mind telling me what outcome value was observed for `CCc1ccc(C(=O)NN(C(=O)c2cc(C)cc(C)c2)C(C)(C)C)cc1` ? inactive

Would you mind telling me what outcome value was observed for `O=[Se]=O` ? inactive

Would you mind telling me what outcome value was observed for `ClCc1ccccc1` ? inactive

Would you mind telling me what outcome value was observed for `C=CC(=O)OC` ? inactive

Now turn to the next compound.
Would you mind telling me what outcome value was observed for `C=C(C#N)CCC#N` ? inactive

* * *

experiment: qHTS assay to identify small molecule agonists of H2AX - cell viability counter screen (AID 1224847); conditions: CHO-K1 viability, CellTiter-Glo luminescence, 3 h; series mostly up to 154 µM;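 note: wild-type CHO-K1 cells; top concentration of the series differs between compounds; nearly all actives have a fitted effect of over 30% in size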
Records with an inconclusive call do not appear. Calls of active or inactive are those of the source. Calls follow the shape of the full dose curve.
Please answer using one outcome listed in active, inactive

Past entries and their recorded results:
Please let me know the test result on file for `ClCc1ccccc1` . inactive

Please let me know the test result on file for CN1C(=O)NC(=O)C(C)(C2=CCCCC2)C1=O (stereo not given) . inactive

Please let me know the test result on file for `NNC(=O)c1cccnc1` . inactive

Others:
Please let me know the test result on file for `Cc1cc(=O)[nH]o1` . inactive

Please let me know the test result on file for `O=Cc1ccc2c(c1)OCO2` . inactive

Please let me know the test result on file for `C=COC(C)=O` . inactive

Please let me know the test result on file for `NS(=O)(=O)C(F)(F)C(F)(F)C(F)(F)C(F)(F)C(F)(F)C(F)(F)C(F)(F)C(F)(F)F` . inactive

Please let me know the test result on file for `COC(C)(C)CCC[C@H](C)C/C=C/C(C)=C/C(=O)OC(C)C` . inactive

Please let me know the test result on file for O=C(O)CC(Cl)C(=O)O (stereo not given) . inactive

The values you see were collected from PubChem BioAssay (Tox21).
